We begin with a simple list: items and their reported hCD47 binding (OD).
System Tested: human CD47 (hCD47) (human, UniProt Q08722 19-139, limits assumed)
Sequence (Q08722 19-139 limits assumed): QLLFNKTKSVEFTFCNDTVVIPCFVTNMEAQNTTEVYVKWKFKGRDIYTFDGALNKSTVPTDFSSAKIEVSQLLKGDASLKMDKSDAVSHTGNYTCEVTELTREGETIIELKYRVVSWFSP
Measurement Description: ELISA, coated hCD47 ECD Fc, supernatant, anti-c-Myc HRP
Answer in OD, number only, no unit symbol.

4RP13-3-7B (designed binder, tested as bacterial supernatant; also called S-28; hSIRPα-mt10 (IgV domain)) hSIRPα IgV domain mutant: EEELQVIQPDKSVSVAAGESAILTCTVTSLYPVGPIQWFRGAGPARELIYNQKRQTFPRVTTVSESTKRFNMDFSISISNITPADAGTYYCVKFRKGSPDTEFKSGAGTELSVRAKPS ... 1.49

For the binder 4RP13-1-7A (designed binder, tested as bacterial supernatant; also called S-19; hSIRPα-mt8 (IgV domain)) hSIRPα IgV domain mutant: EEELQVIQPDKSVSVAAGESAILHCTVTSLKPVGPIQWFRGAGPARELIYNQKRDTFPRVTTVSESTKRENRDFSISISNITPADAGTYYCVKFRKGSPDTEFKSGAGTELSVRAKPS , what hCD47 binding (OD) is on record?
1.9

Follow-up item: 4RP13-3-10B (designed binder, tested as bacterial supernatant; also called S-26; hSIRPα-mt12 (IgV domain)) hSIRPα IgV domain mutant: EEELQVIQPDKSVSVAAGESAILHCTVTSLYPVGPIQWFRGAGPARELIYNQKGRRFPRVTTVSESTKRANMDFSISISNITPADAGTYYCVKFRKGSPDTEFKSGAGTELSVRAKPS
1.65

Follow-up item: 4RP13-4-5C (designed binder, tested as bacterial supernatant; also called S-21; hSIRPα-mt5 (IgV domain)) hSIRPα IgV domain mutant: EEELQVIQPDKSVSVAAGESAILNCTVTSLIPVGPIQWFRGAGPARELIYNQKHQTFPRVTTVSEQTKRENRDFSISISNITPADAGTYYCVKFRKGSPDTEFKSGAGTELSVRAKPS
1.86

Follow-up item: 4RP6-1-10A (designed binder, tested as bacterial supernatant; also called S-16; hSIRPα-mt13 (IgV domain)) hSIRPα IgV domain mutant: EEELQVIQPDKSVSVAAGESAILHCTVTSLLPVGPIQWFRGAGPARELIYNQKDFLFPRVTTVSESTKRENRDFSISISNITPADAGTYYCVKFRKGSPDTEFKSGAGTELSVRAKPS
1.87

Follow-up item: 2RP-1-3E (designed binder, tested as bacterial supernatant; also called S-7; hSIRPα-mt9 (IgV domain)) hSIRPα IgV domain mutant: EEELQVIQPDKSVSVAAGESAILTCTVTSLWPVGPIQWFRGAGPARELIYNQKGQNFPRVTTVSESTKRFNMDFSISISNITPADAGTYYCVKFRKGSPDTEFKSGAGTELSVRAKPS
1.72

Follow-up item: 4RP13-3-11A (designed binder, tested as bacterial supernatant; also called S-2; hSIRPα-mt3 (IgV domain)) hSIRPα IgV domain mutant: EEELQVIQPDKSVSVAAGESAILHCTVTSLWPVGPIQWFRGAGPARELIYNQKAWPFPRVTTVSESTKRENMDFSISISNITPADAGTYYCVKFRKGSPDTEFKSGAGTELSVRAKPS
1.67

Follow-up item: 4RP13-3-4D (designed binder, tested as bacterial supernatant; also called S-11; hSIRPα-mt11 (IgV domain)) hSIRPα IgV domain mutant: EEELQVIQPDKSVSVAAGESAILHCTVTSLLPVGPIQWFRGAGPARELIYNQKSKVFPRVTTVSESTKRRNMDFSISISNITPADAGTYYCVKFRKGSPDTEFKSGAGTELSVRAKPS
1.79

Follow-up item: 4RP13-1-2G (designed binder, tested as bacterial supernatant; also called S-5; hSIRPα-mt4 (IgV domain)) hSIRPα IgV domain mutant: EEELQVIQPDKSVSVAAGESAILRCTVTSLWPVGPIQWFRGAGPARELIYNQKAFIFPRVTTVSESTKRGNMDFSISISNITPADAGTYYCVKFRKGSPDTEFKSGAGTELSVRAKPS
1.94
